Reference source for all entries: PubChem BioAssay AID1054

# subject of test: UniProtKB Q64346
# run description: DUSP6 phosphatase inhibition, redox-sensitive – biochemical, rat enzyme, secondary assay (AID 1054)
# run parameters: recombinant MKP-3 phosphatase activity, redox-state secondary assay
Calls of active or inactive are those of the source. The rule behind the calls is not given here.
Classes used: yes (active), no (inactive)

# compound, qualitative label
rows = [
    ("O=C(O)C1Nc2c(Cl)cc(Cl)c(Cl)c2C2C=CCC12 (stereo unspecified)", "yes"),
    ("Cc1ccc(CC(=O)Nc2cc(C)on2)cc1", "no"),
    ("CCOC(=O)C1Nc2c(OC)cccc2C2OCCCC12 (stereo unspecified)", "no"),
    ("Cc1cc(C)c2c(c1)NC(C(=O)O)C1CC=CC21 (stereo unspecified)", "yes"),
    ("O=C(O)c1ccc([N+](=O)[O-])c2c1NC(C(=O)O)C1CC=CC21 (stereo unspecified)", "no"),
    ("Cc1ccc(-n2c(=O)[nH]c(=O)n([C@H](C(N)=O)C(C)C)c2=O)cc1", "no"),
    ("O=C(O)C1Nc2ccc([N+](=O)[O-])cc2C2C=CCC12 (stereo unspecified)", "yes"),
    ("COc1cc(C(=S)NCc2ccc(C)cc2C)ccc1O", "yes"),
    ("COc1cc(C(=S)NC2CCCCC2)ccc1O", "yes"),
    ("O=S(=O)(O)c1ccc2cc(N=Nc3cc(S(=O)(=O)O)c4cccnc4c3O)ccc2c1", "yes"),
    ("COCCCNc1nc(=O)n(-c2ccc(F)cc2)c(=O)[nH]1", "no"),
]

====

# subject of test: UniProtKB Q64346
# run description: DUSP6 phosphatase inhibition, redox-sensitive – biochemical, rat enzyme, secondary assay (AID 1054)
# run parameters: recombinant MKP-3 phosphatase activity, redox-state secondary assay
The source made the active and inactive calls. No rule for the calls is given here.
Classes used: 1.0 = active, 0.0 = inactive

# compound, qualitative label
measured = [
    ("O=c1/c(=C/c2cccc(Br)c2)sc2nc3cc(Br)cnc3n12", 0.0),
    ("COc1ccc(-n2c(=O)nc(NCCc3cccc(Cl)c3)[nH]c2=O)cc1", 0.0),
    ("CCOc1cc2c(c([N+](=O)[O-])c1)NC(C(=O)O)C1CC=CC21 (stereo not drawn)", 0.0),
    ("CCN1CCN(C(=S)c2ccc(O)c(OC)c2)CC1", 0.0),
    ("CCOC(=O)C1Nc2c(O)cccc2C2C=CCC12 (stereo not drawn)", 0.0),
    ("CCCCOC(=O)c1ccc2c(c1)C1C=CCC1C(C(=O)O)N2 (stereo not drawn)", 1.0),
    ("O=c1nc(NCCc2ccccc2)[nH]c(=O)n1-c1ccccc1", 0.0),
    ("O=C(O)C1Nc2c(cccc2N2CCOCC2)C2C=CCC12 (stereo not drawn)", 1.0),
    ("CC1=C(C(=O)OC(C)C)C(c2ccc(Cl)cc2)n2c(sc(=Cc3ccc(OCC(=O)O)cc3)c2=O)=N1 (stereo not drawn)", 1.0),
    ("O=C(O)C1Nc2c(O)cc(Cl)c([N+](=O)[O-])c2C2C=CCC12 (stereo not drawn)", 1.0),
    ("O=C(O)C1Nc2ccc(Br)cc2C2C=CCC12 (stereo not drawn)", 1.0),
    ("CC(C)COC(=O)c1ccc2c(c1)C1C=CCC1C(C(=O)O)N2 (stereo not drawn)", 1.0),
    ("O=C(O)C1Nc2c(Cl)cc(Cl)cc2C2C=CCC12 (stereo not drawn)", 1.0),
    ("Cn1c(=O)n(CC(N)=O)c(=O)n(-c2ccccc2)c1=O", 0.0),
    ("CCn1c(SCC(=O)O)nc2sc3c(c2c1=O)CCCC3", 0.0),
    ("Cc1ccc2c(c1C)NC(C(=O)O)C1CC=CC21 (stereo not drawn)", 1.0),
    ("NC(=O)[C@H](Cc1ccccc1)n1c(=O)n(Cc2ccc(Br)cc2)c(=O)n(-c2ccccc2)c1=O", 0.0),
    ("O=C(O)C1Nc2c(cccc2C(F)(F)F)C2C=CCC12 (stereo not drawn)", 1.0),
    ("Cc1cc2nc3s/c(=C/c4ccc(-c5ccccc5C(=O)O)o4)c(=O)n3c2cc1C", 1.0),
    ("COc1cc(C(=S)NCc2ccc(F)c(C)c2)ccc1O", 1.0),
    ("CCC(CC)NC(=S)c1ccc(O)c(OC)c1", 1.0),
    ("Cc1ccc(C)c2c1NC(C(=O)O)C1CC=CC21 (stereo not drawn)", 0.0),
    ("CC(C)CNc1nc(=O)n(-c2ccc(F)cc2)c(=O)[nH]1", 0.0),
]

====

# subject of test: Dual specificity protein phosphatase 6 (Rattus norvegicus) (UniProt Q64346)
# Sequence (Q64346 whole entry, looked up): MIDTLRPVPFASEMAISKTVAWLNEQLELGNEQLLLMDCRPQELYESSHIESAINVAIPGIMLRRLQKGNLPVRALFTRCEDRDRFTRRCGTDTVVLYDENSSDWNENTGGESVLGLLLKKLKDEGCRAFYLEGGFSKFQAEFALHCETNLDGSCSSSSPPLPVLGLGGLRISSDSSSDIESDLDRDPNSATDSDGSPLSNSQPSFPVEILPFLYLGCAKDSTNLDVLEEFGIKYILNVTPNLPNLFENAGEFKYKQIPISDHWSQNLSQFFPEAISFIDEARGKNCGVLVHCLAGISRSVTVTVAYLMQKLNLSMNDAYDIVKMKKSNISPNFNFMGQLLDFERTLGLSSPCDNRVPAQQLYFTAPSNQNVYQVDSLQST
# run description: DUSP6 phosphatase inhibition, redox-sensitive – biochemical, rat enzyme, secondary assay (AID 1054)
# run parameters: recombinant MKP-3 phosphatase activity, redox-state secondary assay
Active and inactive are the calls of the source. How the calls were made is not given here.
Classes used: 1.0 = active, 0.0 = inactive

# compound, subject of test, qualitative label
measured = [
    ("O=C1CC(=O)N(Cc2ccco2)C(=O)N1", "Dual specificity protein phosphatase 6 (Rattus norvegicus) (UniProt Q64346)", 0.0),
    ("CCOC(=O)C1Nc2c(OC)cccc2C2OCCC12 (configuration not stated)", "Dual specificity protein phosphatase 6 (Rattus norvegicus) (UniProt Q64346)", 0.0),
    ("O=C(O)[C@H](O)c1ccccc1", "Dual specificity protein phosphatase 6 (Rattus norvegicus) (UniProt Q64346)", 0.0),
    ("O=C(O)c1ccc(N2C(=O)c3ccccc3C2=O)cc1", "Dual specificity protein phosphatase 6 (Rattus norvegicus) (UniProt Q64346)", 0.0),
    ("CSc1nnc(-c2ccco2)c(-c2ccco2)n1", "Dual specificity protein phosphatase 6 (Rattus norvegicus) (UniProt Q64346)", 1.0),
    ("COc1cc(C(=S)N2CCC(C)CC2)ccc1O", "Dual specificity protein phosphatase 6 (Rattus norvegicus) (UniProt Q64346)", 1.0),
    ("CCCCCCCCC#CC#CCCCC(=O)O", "Dual specificity protein phosphatase 6 (Rattus norvegicus) (UniProt Q64346)", 0.0),
    ("CCCCCCn1c(=O)nc(NCc2ccccc2OC)[nH]c1=O", "Dual specificity protein phosphatase 6 (Rattus norvegicus) (UniProt Q64346)", 0.0),
    ("c1ccc(CSc2nnc(-c3ccco3)c(-c3ccco3)n2)cc1", "Dual specificity protein phosphatase 6 (Rattus norvegicus) (UniProt Q64346)", 1.0),
    ("Clc1cccc(Cl)c1COc1nnc(-c2cccs2)c(-c2cccs2)n1", "Dual specificity protein phosphatase 6 (Rattus norvegicus) (UniProt Q64346)", 0.0),
    ("CCn1c(=O)n(Cc2ccccc2C)c(=O)n([C@@H](Cc2ccccc2)C(=O)O)c1=O", "Dual specificity protein phosphatase 6 (Rattus norvegicus) (UniProt Q64346)", 0.0),
    ("Cc1ccccc1Cn1c(=O)n(-c2ccccc2)c(=O)n([C@H](C(=O)O)C(C)C)c1=O", "Dual specificity protein phosphatase 6 (Rattus norvegicus) (UniProt Q64346)", 0.0),
    ("CCOC(=O)C1=C(C)N=c2s/c(=C/c3cc(Cl)c(OCC(=O)O)c(OC)c3)c(=O)n2C1c1ccccc1Cl (configuration not stated)", "Dual specificity protein phosphatase 6 (Rattus norvegicus) (UniProt Q64346)", 1.0),
    ("CCn1c(=O)n(C)c(=O)n([C@@H](Cc2ccccc2)C(N)=O)c1=O", "Dual specificity protein phosphatase 6 (Rattus norvegicus) (UniProt Q64346)", 0.0),
    ("Cc1ccc2c(c1)NC(C(=O)O)NS2(=O)=O (configuration not stated)", "Dual specificity protein phosphatase 6 (Rattus norvegicus) (UniProt Q64346)", 1.0),
    ("Cc1cc(NC(=O)/C=C/c2cccs2)no1", "Dual specificity protein phosphatase 6 (Rattus norvegicus) (UniProt Q64346)", 0.0),
    ("CCOC(=O)C1Nc2c(O)cc(C)cc2C2C=CCC12 (configuration not stated)", "Dual specificity protein phosphatase 6 (Rattus norvegicus) (UniProt Q64346)", 0.0),
    ("NS(=O)(=O)c1ccc2c(c1)C1C=CCC1C(C(=O)O)N2 (configuration not stated)", "Dual specificity protein phosphatase 6 (Rattus norvegicus) (UniProt Q64346)", 0.0),
    ("O=C(O)C1Nc2c(cccc2S(=O)(=O)c2ccccc2)C2C=CCC12 (configuration not stated)", "Dual specificity protein phosphatase 6 (Rattus norvegicus) (UniProt Q64346)", 1.0),
    ("CCn1c(=O)n(Cc2ccc(N(O)O)cc2)c(=O)n([C@@H](Cc2ccccc2)C(=O)O)c1=O", "Dual specificity protein phosphatase 6 (Rattus norvegicus) (UniProt Q64346)", 0.0),
    ("CCn1c(=O)n(CC)c(=O)n([C@@H](Cc2ccccc2)C(=O)O)c1=O", "Dual specificity protein phosphatase 6 (Rattus norvegicus) (UniProt Q64346)", 0.0),
    ("Cn1c(=O)n(-c2ccccc2)c(=O)n([C@@H](Cc2ccccc2)C(N)=O)c1=O", "Dual specificity protein phosphatase 6 (Rattus norvegicus) (UniProt Q64346)", 0.0),
    ("CCCCCCCCCCCCCCCCCCC=CCCCCCC(=O)O", "Dual specificity protein phosphatase 6 (Rattus norvegicus) (UniProt Q64346)", 0.0),
    ("CCOC(=O)C1=C(C)N=c2s/c(=C\\c3cc(Cl)c(OCC(=O)O)c(Cl)c3)c(=O)n2C1c1cccc(OC)c1 (configuration not stated)", "Dual specificity protein phosphatase 6 (Rattus norvegicus) (UniProt Q64346)", 1.0),
    ("Cc1cc(C)c2c(c1)C1C=CCC1C(C(=O)O)N2 (configuration not stated)", "Dual specificity protein phosphatase 6 (Rattus norvegicus) (UniProt Q64346)", 0.0),
    ("O=C(O)C1Nc2c(I)cccc2C2C=CCC12 (configuration not stated)", "Dual specificity protein phosphatase 6 (Rattus norvegicus) (UniProt Q64346)", 0.0),
    ("O=C(O)C(O)c1ccccc1 (configuration not stated)", "Dual specificity protein phosphatase 6 (Rattus norvegicus) (UniProt Q64346)", 0.0),
    ("Clc1ccccc1CSc1nnc(-c2ccco2)c(-c2ccco2)n1", "Dual specificity protein phosphatase 6 (Rattus norvegicus) (UniProt Q64346)", 1.0),
    ("COc1cc(C(=S)NC2CCCC2)ccc1O", "Dual specificity protein phosphatase 6 (Rattus norvegicus) (UniProt Q64346)", 1.0),
    ("COCCCNc1nc(=O)n(-c2ccc(C)cc2)c(=O)[nH]1", "Dual specificity protein phosphatase 6 (Rattus norvegicus) (UniProt Q64346)", 0.0),
    ("Cc1cc(I)cc2c1NC(C(=O)O)C1CC=CC21 (configuration not stated)", "Dual specificity protein phosphatase 6 (Rattus norvegicus) (UniProt Q64346)", 0.0),
    ("COc1cc(C(=S)NCc2ccc(F)c(C(F)(F)F)c2)ccc1O", "Dual specificity protein phosphatase 6 (Rattus norvegicus) (UniProt Q64346)", 1.0),
    ("CCN(CC)C(=S)c1ccc(O)c(OC)c1", "Dual specificity protein phosphatase 6 (Rattus norvegicus) (UniProt Q64346)", 1.0),
    ("Cc1ccccc1Cn1c(=O)n(-c2ccccc2)c(=O)n([C@@H](C)C(N)=O)c1=O", "Dual specificity protein phosphatase 6 (Rattus norvegicus) (UniProt Q64346)", 0.0),
    ("CCOC(=O)C1=C(c2ccccc2)N=c2sc(=Cc3cc(OC)c(OC)c(OC)c3)c(=O)n2C1c1cccs1 (configuration not stated)", "Dual specificity protein phosphatase 6 (Rattus norvegicus) (UniProt Q64346)", 0.0),
    ("COc1cc(C(=S)NC(C)(C)C)ccc1O", "Dual specificity protein phosphatase 6 (Rattus norvegicus) (UniProt Q64346)", 0.0),
    ("CCCn1c(=O)nc(NCc2ccccc2OC)[nH]c1=O", "Dual specificity protein phosphatase 6 (Rattus norvegicus) (UniProt Q64346)", 0.0),
    ("O=C(Oc1ccc2c(c1)C1C=CCC1C(C(=O)O)N2)c1ccc(Cl)cc1Cl (configuration not stated)", "Dual specificity protein phosphatase 6 (Rattus norvegicus) (UniProt Q64346)", 1.0),
    ("NC(=O)c1cccc2c1NC(C(=O)O)C1CC=CC21 (configuration not stated)", "Dual specificity protein phosphatase 6 (Rattus norvegicus) (UniProt Q64346)", 1.0),
    ("COc1cc(C(=S)N2CCCC2)ccc1O", "Dual specificity protein phosphatase 6 (Rattus norvegicus) (UniProt Q64346)", 0.0),
    ("CCCCCCCCCCCCCCCCCCC#CCCCCCCCCCCCC(=O)O", "Dual specificity protein phosphatase 6 (Rattus norvegicus) (UniProt Q64346)", 0.0),
    ("COC(=O)c1ccccc1OC(=O)c1ccc2c(c1)C1C=CCC1C(C(=O)O)N2 (configuration not stated)", "Dual specificity protein phosphatase 6 (Rattus norvegicus) (UniProt Q64346)", 1.0),
    ("Cc1cc(NC(=O)c2cccs2)no1", "Dual specificity protein phosphatase 6 (Rattus norvegicus) (UniProt Q64346)", 0.0),
    ("COc1cc(C(=S)NCc2ccc(O)cc2)ccc1O", "Dual specificity protein phosphatase 6 (Rattus norvegicus) (UniProt Q64346)", 1.0),
    ("Cc1ccc2c(c1Cl)NC(C(=O)O)C1CC(Sc3ccccc3[N+](=O)[O-])C(Cl)C21 (configuration not stated)", "Dual specificity protein phosphatase 6 (Rattus norvegicus) (UniProt Q64346)", 1.0),
    ("Cc1cc(C)c2nc3s/c(=C\\c4ccc(-c5ccccc5C(=O)O)o4)c(=O)n3c2c1", "Dual specificity protein phosphatase 6 (Rattus norvegicus) (UniProt Q64346)", 1.0),
    ("O=C(O)c1ccc2c(c1)C1C=CCC1C(C(=O)O)N2 (configuration not stated)", "Dual specificity protein phosphatase 6 (Rattus norvegicus) (UniProt Q64346)", 1.0),
]
